test system: T1, DAGWGNLc (SEQ ID NO: 9) peptide conjugated to bovine serum albumin (human; bovine, UniProt P02769 25-607, N-terminus acetylated; C-terminal Cys conjugated to BSA)
T1 construct: TDP-43 residues 65-71 plus an added C-terminal cysteine; also called Peptide conjugated to bovine serum albumin (BSA)
T1 sequence (P02769 25-607 limits assumed): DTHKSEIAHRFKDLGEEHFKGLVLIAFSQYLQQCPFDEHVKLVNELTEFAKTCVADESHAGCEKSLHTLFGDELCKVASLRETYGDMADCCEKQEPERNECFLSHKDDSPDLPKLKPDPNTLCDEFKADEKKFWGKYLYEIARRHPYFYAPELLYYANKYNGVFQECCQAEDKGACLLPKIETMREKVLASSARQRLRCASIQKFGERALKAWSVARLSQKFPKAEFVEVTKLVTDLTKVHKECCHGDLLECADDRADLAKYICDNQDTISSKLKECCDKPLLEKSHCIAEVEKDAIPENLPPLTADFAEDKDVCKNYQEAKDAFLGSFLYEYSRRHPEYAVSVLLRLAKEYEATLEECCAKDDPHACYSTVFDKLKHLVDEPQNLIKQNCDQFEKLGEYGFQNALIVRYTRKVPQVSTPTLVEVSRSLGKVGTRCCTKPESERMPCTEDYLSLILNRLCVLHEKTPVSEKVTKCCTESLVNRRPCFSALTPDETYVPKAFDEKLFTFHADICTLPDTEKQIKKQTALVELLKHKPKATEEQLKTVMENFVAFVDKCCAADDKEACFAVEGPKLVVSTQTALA
assay method text: SPR, peptide-BSA immobilized (about 50 RU), antibody injected, Langmuir 1:1 fit
measure name: kon
Please state the number and follow it with the unit.

# input binder: rabbit monoclonal antibody 1 (1H3-1K3) (antibody, V domains shown, Recombinant; also called Rabbit 1; clone 1) VH: QSVEESGGRLVTPGTPLTLTCTVSGFSLSRYYMTWVRQAPGKGLEYIGVIIPGGTTYYASWAKGRFTISKTSTTVDLRITSPTTEDTATYFCAGGPTGNSHFTLWGQGTLVTVS VL: VMTQTPSSKSVPVGGTVTINCQASESVYNNNHLSWYQQKSGQPPKLLIYEASKLESGVPPRFKGSGSGTQFTLTISDVVCDDAATYYCSGYKRVTTDGIAFGGGTEVVVK ; wanted: its kon
403000 M⁻¹ s⁻¹

Origin of the recorded values: patent US20220056118A1
